The origin of these recorded values is patent US20140045856A1.

MEASUREMENT DESCRIPTION: Animal experiments and sample analysis: plasma, brain and CSF concentration
Type: in vivo
CONDITION SUMMARY: rat; 0.5 h between administration and CSF sampling; doses of 10.0 or 5 μmol/kg; read-out: conc CSF
MEASURED METRIC: concentration at 0.5 h (nM)
Reply numerically in nM, unit not repeated.

> print(dat)
                                   molecule         measured.metric  measured.value
1  Cc1nc2cccnc2n2c(-c3cc(OC4CCOCC4)ccc3Cl)nnc12 [Example 20]  concentration at 0.5 h              37
2  Cc1nc2cccnc2n2c(-c3cc(OCC(C)(C)O)ccc3Cl)nnc12 [Example 44]  concentration at 0.5 h             228
3  Cc1nc2cccnc2n2c(-c3cc(OC[C@H](C)O)ccc3Cl)nnc12 [Example 18]  concentration at 0.5 h             163

Alright, here's another molecule for you.
Entry Cc1ccc2nc(C)c3nnc(-c4cc(OC[C@H](C)O)ccc4Cl)n3c2n1 [Example 34] , concentration at 0.5 h reported as 19

----------
ASSAYED SYSTEM: PDE2A (Homo sapiens, UniProt O00408)
Sequence (O00408 whole entry, species assumed): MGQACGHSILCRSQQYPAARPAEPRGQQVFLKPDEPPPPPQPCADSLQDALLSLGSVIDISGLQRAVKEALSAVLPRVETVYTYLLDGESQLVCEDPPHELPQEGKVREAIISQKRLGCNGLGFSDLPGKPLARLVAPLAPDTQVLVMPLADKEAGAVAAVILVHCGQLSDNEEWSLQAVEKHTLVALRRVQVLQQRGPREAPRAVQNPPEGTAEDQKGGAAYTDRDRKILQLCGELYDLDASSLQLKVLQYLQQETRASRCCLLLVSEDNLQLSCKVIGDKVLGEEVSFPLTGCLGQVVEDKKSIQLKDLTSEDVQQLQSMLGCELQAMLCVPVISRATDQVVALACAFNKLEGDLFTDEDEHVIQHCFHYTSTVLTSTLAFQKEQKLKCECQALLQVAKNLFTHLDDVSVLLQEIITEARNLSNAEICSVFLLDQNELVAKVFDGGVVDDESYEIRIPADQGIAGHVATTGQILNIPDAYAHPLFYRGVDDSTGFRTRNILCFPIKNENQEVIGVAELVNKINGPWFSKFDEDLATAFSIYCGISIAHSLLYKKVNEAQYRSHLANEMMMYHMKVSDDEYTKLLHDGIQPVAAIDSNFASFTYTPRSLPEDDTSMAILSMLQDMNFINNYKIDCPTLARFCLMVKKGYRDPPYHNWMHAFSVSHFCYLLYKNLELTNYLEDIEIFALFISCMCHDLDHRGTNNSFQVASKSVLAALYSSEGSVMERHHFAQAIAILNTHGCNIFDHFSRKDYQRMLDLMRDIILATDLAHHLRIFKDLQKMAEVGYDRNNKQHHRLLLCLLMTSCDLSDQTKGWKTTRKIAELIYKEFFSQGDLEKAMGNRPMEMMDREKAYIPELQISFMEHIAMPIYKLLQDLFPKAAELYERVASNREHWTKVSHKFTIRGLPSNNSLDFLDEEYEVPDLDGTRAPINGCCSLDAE
MEASUREMENT DESCRIPTION: PDE 2A assay with fluorescent substrate (IMAP, fluorescence polarization)
Format: biochemical
CONDITION SUMMARY: read-out: PDE2 IC50
Label scheme for IC50: Low (below 10 nM), Mid (10 nM to below 90 nM), High (90 nM or more)

> print(dat)
                                    compound  discrete.label
 1  Cc1ccc2nc(C)c3nnc(-c4cc(C(C)(C)O)ccc4Cl)n3c2n1            High
 2  Cc1ccc(OCC(C)(C)O)cc1-c1nnc2c(C)nc3ccc(C4CC4)nc3n12             Low
 3  Cc1nc2cc(C(C)C)cnc2n2c(-c3cc(OCC(C)(C)O)ccc3Cl)nnc12             Mid
 4  Cc1nc2cccnc2n2c(-c3cc(C4(O)CCOC4)ccc3Cl)nnc12 (stereo not drawn) [Example 74]            High
 5  Cc1nc2ccc(C(F)(F)F)nc2n2c(-c3cc(OC4COCCC4O)ccc3F)nnc12 (single isomer, unassigned) [Example 110b]            High
 6  Cc1ccc2nc(C)c3nnc(-c4cc(OC5CCC(F)(F)CC5)ccc4Cl)n3c2n1             Mid
 7  Cc1nc2ccc(C3CC3)nc2n2c(-c3cc(OC4COCCC4O)ccc3F)nnc12 (single isomer, unassigned) [Example 108a]             Mid
 8  Cc1nc2cccnc2n2c(-c3cc(C4(O)CCOCC4)ccc3Cl)nnc12             Mid
 9  Cc1nc2cccnc2n2c(-c3cc(OCC4(O)CCC4)ccc3F)nnc12            High
10  Cc1nc2ccc(C(F)(F)F)nc2n2c(-c3cc(OC4CCOCC4O)ccc3F)nnc12 (single isomer, unassigned) [Example 110d]            High

*Q* Entry Cc1nc2ccc(C3CC3)nc2n2c(-c3cc(OC4COCCC4O)ccc3Cl)nnc12 (single isomer, unassigned) [Example 109a] belongs to which category?
*A* Mid

*Q* Hey, which category is `Cc1nc2cccnc2n2c(-c3cc(C4(O)CCC4)ccc3Cl)nnc12` in, do you know?
*A* Mid

*Q* Lab note: sort Cc1ccc2nc(C)c3nnc(-c4cc(C(O)C(C)C)ccc4Cl)n3c2n1 (stereo not drawn) into the matching IC50 band.
*A* Low

*Q* # bin lookup: classify Cc1nc2cccnc2n2c(-c3cc(C4(O)CCOC4)ccc3Cl)nnc12 (single isomer, unassigned) [Example 98] by its IC50
*A* High

*Q* Note: place this compound into its band. Item: `Cc1cnc2c(c1)nc(C)c1nnc(-c3cc(O)ccc3Cl)n12`
*A* Mid

*Q* Please let me know in which category the item `Cc1nc2ccc(C3CC3)nc2n2c(-c3cc(C4(O)CCC4)ccc3Cl)nnc12` belongs.
*A* Low

*Q* Class label required: `Cc1nc2cccnc2n2c(-c3cc(O)ccc3F)nnc12`
*A* High

*Q* Category of `Cc1nc2ccc(C3CC3)nc2n2c(-c3cc(CCC(C)(C)O)ccc3Cl)nnc12` :
*A* Low

*Q* Band of Cc1ccc(C2(O)CCOCC2O)cc1-c1nnc2c(C)nc3ccc(C4CC4)nc3n12 (racemic) [Example 104] ?
*A* Mid
